Assayed system: T1, Human TNFR2-His (Sino 10417-H08H) (human, UniProt P20333 23-257)
T1 construct: Bought protein; also called recombinant human TNFR2 protein; not shown: His tag
T1 sequence (looked up): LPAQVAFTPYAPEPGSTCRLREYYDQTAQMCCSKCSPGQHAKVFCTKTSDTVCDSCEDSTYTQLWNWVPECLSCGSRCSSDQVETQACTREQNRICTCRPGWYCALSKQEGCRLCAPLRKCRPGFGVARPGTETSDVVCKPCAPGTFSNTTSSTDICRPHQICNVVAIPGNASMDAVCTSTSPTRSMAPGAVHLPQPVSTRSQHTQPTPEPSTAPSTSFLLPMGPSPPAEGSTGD
Assay text: ELISA, human TNFR2-His coated
Experimental: The test humanized antibody against TNFR2 (as described in Example 1, the antibody was comprised of variable regions linked to IgG-Fc; the WT chimeric antibody also adopted the IgG-Fc structure) was subjected to 3.33-fold gradient dilution, loaded with 100 μl/well, and incubated with shaking at room temperature for 1.5 hours. […] A stop solution was added to stop the reaction, and then a microplate reader (MD 13) was used to read the absorbance value. […]
EC50 overview
# unit: µg/mL | format: bare number

Examples with answers:
* 001-Hu5 (antibody, V domains shown, Humanized form of #001; also called VH1 + VL4) VH: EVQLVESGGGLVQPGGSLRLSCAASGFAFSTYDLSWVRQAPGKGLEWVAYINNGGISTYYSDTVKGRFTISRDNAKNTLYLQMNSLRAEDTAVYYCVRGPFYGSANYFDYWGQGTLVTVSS VL: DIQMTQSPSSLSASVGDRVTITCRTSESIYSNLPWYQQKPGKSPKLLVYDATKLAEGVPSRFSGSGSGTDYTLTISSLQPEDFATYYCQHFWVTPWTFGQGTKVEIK | 0.0102
* 224-Hu7 (antibody, V domains shown, Humanized form of #224; also called VH9 + VL10) VH: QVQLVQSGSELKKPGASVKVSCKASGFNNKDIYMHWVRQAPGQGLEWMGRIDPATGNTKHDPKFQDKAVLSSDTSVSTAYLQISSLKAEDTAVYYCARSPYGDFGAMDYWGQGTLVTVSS VL: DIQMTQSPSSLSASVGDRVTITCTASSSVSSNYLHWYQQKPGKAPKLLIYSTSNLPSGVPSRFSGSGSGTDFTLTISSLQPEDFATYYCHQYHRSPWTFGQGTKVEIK | 0.0096

Request: Sample 001-Hu3 (antibody, V domains shown, Humanized form of #001; also called VH1 + VL3) VH: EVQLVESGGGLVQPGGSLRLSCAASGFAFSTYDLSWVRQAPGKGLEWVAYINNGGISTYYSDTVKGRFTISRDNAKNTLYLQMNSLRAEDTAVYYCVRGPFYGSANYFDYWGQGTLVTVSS VL: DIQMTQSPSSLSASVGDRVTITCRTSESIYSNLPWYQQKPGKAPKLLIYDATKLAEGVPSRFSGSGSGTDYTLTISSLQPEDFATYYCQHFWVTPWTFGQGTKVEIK — what was its EC50?
Result: 0.0101

Request: Which value of EC50 has been reported for 224-Hu1 (antibody, V domains shown, Humanized form of #224; also called VH8 + VL6) VH: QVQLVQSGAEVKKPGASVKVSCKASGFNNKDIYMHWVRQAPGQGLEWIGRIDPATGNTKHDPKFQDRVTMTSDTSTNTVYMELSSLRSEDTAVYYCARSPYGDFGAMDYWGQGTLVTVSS VL: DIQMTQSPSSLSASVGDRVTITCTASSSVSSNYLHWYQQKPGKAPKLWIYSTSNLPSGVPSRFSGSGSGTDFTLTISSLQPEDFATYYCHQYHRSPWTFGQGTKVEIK in the records?
Result: 0.0104
